- Assay summary: AUC (0 to t) in Sprague-Dawley rat at 10 mg/kg, po
- Assay type: ADME, organism-based
- Set-up: dose 10 mg/kg, route po
- Settings: in vivo
Test readout: AUC(0-t) (ng·h/mL)

[[record]]
compound = "CC(=O)Nc1cc(Oc2ccc(NC(=O)Cc3ccccc3C(F)(F)F)cc2)ncn1"
test_readout = "AUC(0-t)"
result_number = 26700


* * *

- Test system: BaF3
- Assay summary: Antiproliferative activity against mouse BaF3 cells transfected with FLT3 ITD mutant assessed as cell growth inhibition incubated for 72 hrs by CCK-8 assay
- Format: functional
Recorded GI50 for the following compounds
Test readout: GI50 (nM)

[[record]]
compound = "CC(=O)Nc1cc(Oc2ccc(NC(=O)Nc3ccc(CN4CCN(C)CC4)c(C(F)(F)F)c3)cc2)ncn1"
assay_target = "BaF3"
bound_operator = "<"
result_number = 0.3

[[record]]
compound = "CCC(=O)Nc1cc(Oc2ccc(NC(=O)Nc3ccc(C)c(C(F)(F)F)c3)cc2)ncn1"
assay_target = "BaF3"
bound_operator = "="
result_number = 1

[[record]]
compound = "CC(=O)Nc1cc(Oc2ccc(NC(=O)Nc3ccc(C)c(C(F)(F)F)c3)cc2)ncn1"
assay_target = "BaF3"
bound_operator = "<"
result_number = 0.3

[[record]]
compound = "COc1ccc(CNc2cc(Oc3ccc(NC(=O)Nc4ccc(C)c(C(F)(F)F)c4)cc3)ncn2)cc1"
assay_target = "BaF3"
bound_operator = "="
result_number = 0.3

[[record]]
compound = "Cc1ccc(NC(=O)Nc2ccc(Oc3cc(N)ncn3)cc2)cc1C(F)(F)F"
assay_target = "BaF3"
bound_operator = "="
result_number = 0.4

[[record]]
compound = "CC(=O)Nc1cc(Oc2ccc(NC(=O)Cc3cccc4ccccc34)cc2)ncn1"
assay_target = "BaF3"
bound_operator = "="
result_number = 11

[[record]]
compound = "Cc1ccc(NC(=O)Nc2ccc(Oc3cc(N4CCNC[C@@H]4C)ncn3)cc2)cc1C(F)(F)F"
assay_target = "BaF3"
bound_operator = "="
result_number = 152

[[record]]
compound = "CC(=O)Nc1cc(Oc2ccc(NC(=O)Cc3ccc(C(F)(F)F)cc3)cc2)ncn1"
assay_target = "BaF3"
bound_operator = "="
result_number = 4

[[record]]
compound = "CC(=O)Nc1cc(Oc2ccc(NC(=O)Cc3ccccc3C(F)(F)F)cc2)ncn1"
assay_target = "BaF3"
bound_operator = "="
result_number = 32

[[record]]
compound = "Cc1ccc(NC(=O)Nc2ccc(Oc3cc(NCCO)ncn3)cc2)cc1C(F)(F)F"
assay_target = "BaF3"
bound_operator = "="
result_number = 9

[[record]]
compound = "CC(=O)Nc1cc(Oc2ccc(NC(=O)Cc3ccc(-c4ccccc4)cc3)cc2)ncn1"
assay_target = "BaF3"
bound_operator = "="
result_number = 746

[[record]]
compound = "CNc1cc(Oc2ccc(NC(=O)Nc3ccc(C)c(C(F)(F)F)c3)cc2)ncn1"
assay_target = "BaF3"
bound_operator = "="
result_number = 2

[[record]]
compound = "CCN1CCN(Cc2ccc(NC(=O)Nc3ccc(Oc4cc(NC(C)=O)ncn4)cc3)cc2C(F)(F)F)CC1"
assay_target = "BaF3"
bound_operator = "<"
result_number = 0.3

